System: UACC-257 melanoma
PROTOCOL_SUMMARY: NCI tumour cell line growth inhibition, 48 h; in the data active = GI50 below about 0.43 µM; inactive = the rest
Entry note: the call must match one of 1 (yes) = active, 0 (no) = inactive

Below are worked cases with known answers.
* CC(C)c1ccc(NC(=O)Cc2ccc(Nc3ncnc4cc(-c5cnn(CCN(C)C)c5)ccc34)cc2)cc1 | 0 (no)
* CCN(Cc1c(F)cccc1Cl)c1ccc(CO)c(Cl)c1 | 1 (yes)
* CC(C)(C)OC(=O)N[C@@H](Cc1ccccc1)C(=O)N(Cc1ccccc1)C1(C(=O)NCc2ccccc2)CCN(Cc2ccccc2)CC1 | 0 (no)
* C[N+](C)=c1ccc2nc3c(cc(NCCCNc4cc5oc6cc(=[N+](C)C)ccc-6nc5c5ccccc45)c4ccccc43)oc-2c1 | 0 (no)
* COc1cc2nccc(Oc3ccc(NC(=O)c4cn(C(C)C)c(=O)n(-c5ccc(F)cc5)c4=O)cc3F)c2cc1OC | 0 (no)
* CC(=O)[CH-]C(=O)c1ccccc1.CC(=O)[CH-]C(=O)c1ccccc1.[O-]c1ccc2c(c1)OCO2.[O-]c1ccc2c(c1)OCO2.[Ti+4] | 0 (no)
* CCC[CH2][Sn]1([CH2]CCC)[S]CC[N]1S(=O)(=O)c1ccc(C)cc1 | 0 (no)
* Cc1cccc2c1[nH]c(=O)c1c3ccccc3cn21 | 0 (no)
* CNC(=O)c1cncc(/C=C/c2ccccc2Cl)c1 | 0 (no)
* CCn1c2ccccc2c2cc(C(=O)c3ccc(C)c4ccccc34)ccc21 | 0 (no)

input: Identify the outcome logged in this assay for the molecule shown: CC[PH+](CC)CC.[Cl][Au]
output: 0 (no)

input: Here is the next molecule: COC(=O)[C@H](Cc1cn(C)cn1)NC(=O)[C@H](Cc1ccccc1)NC(=O)Nc1cc(C(F)(F)F)cc(C(F)(F)F)c1
output: 0 (no)

input: Here is the next molecule: CC/C(=C/c1ccc(OC)cc1OC)[N+](=O)[O-]
output: 0 (no)

input: Here is the next molecule: O=P(O)(O)OCC1OC(n2cnc3c(NCc4ccccc4)ncnc32)C(O)C1O (centres undefined)
output: 0 (no)

input: Here is the next molecule: CCCCn1c(=O)c(/C=C/C(=O)/C=C/c2cc3ccccc3n(CCCC)c2=O)cc2ccccc21
output: 0 (no)

----------
Tested on: NCI-H226 lung
PROTOCOL_SUMMARY: NCI tumour cell line growth inhibition, 48 h
ASSAY_ENDPOINT: GI50

Recorded GI50, per entry:
• COc1ccc(S(=O)(=O)N(C(C)=O)c2ccccc2/C=C/c2cc[n+]([O-])cc2)cc1 = 2480 nM
• O=C1N=C(Nc2nc(-c3csc(NC4=NC(=O)/C(=C\c5ccccc5)S4)n3)cs2)S/C1=C/c1ccccc1 = 337 nM
• CC/C(=C/c1ccc(OC)cc1OC)[N+](=O)[O-] = 2280 nM
• CCC1=C(CC2NCCc3ccccc32)CC2c3cc(OC)c(OC)cc3CCN2C1 (configuration not stated) = 4700 nM
• CC1SC(c2ccc(Cl)cc2Cl)N(NC(=O)C(O)c2ccccc2)C1=O (configuration not stated) = 44100 nM
• CCN(CC)CCCCNc1c2ccc(Cl)cc2nc2ccc(OC)cc12 = 1320 nM
• C=C(C)[C@@H]1CC[C@]2(C(=O)NS(=O)(=O)c3ccccc3)CC[C@]3(C)[C@H](CC[C@@H]4[C@@]5(C)CC[C@H](OC(=O)NS(=O)(=O)c6ccccc6)C(C)(C)[C@@H]5CC[C@]43C)[C@@H]12 = 2380 nM
• CNC(=O)c1cncc(/C=C/c2ccccc2Cl)c1 = > 25000 nM
• COc1ccc2nc3cc(Cl)ccc3c(Nc3cc(CN4CCCC4)c(O)c(CN4CCCC4)c3)c2n1 = 1550 nM
• CCn1c(-c2nonc2N)nc2c(N3CCCC3)nccc21 = 10000 nM

input: Bench note: what GI50 did CN1CCN(CCCOc2cc(O)c3c(=O)cc(-c4ccccc4)oc3c2)CC1 show?
output: 19500 nM

input: Here is the next compound: O=C1c2cc3c(cc2-c2c1c1ccc(Cl)cc1c(=O)n2CCCn1ccnc1)OCO3
output: 18.6 nM

----------
System: HOP-62 NSCLC
PROTOCOL_SUMMARY: NCI tumour cell line growth inhibition, 48 h
Examples of molecules with documented TGI follow.
Answer format: numeric, µM implied, no suffix.

Recorded TGI, per entry:
- CCOC(=O)[C@@H](Cc1ccc(CCl)cc1)NC(C)=O: 75.1
- COc1ccc2c(c1)CCc1c-2n[nH]c1-c1[nH]nc2c1CCc1cc(OC)ccc1-2: 56.3
- CC1=NOC(=O)/C1=C/c1ccc2c(c1)OCO2: 40.9

Here is the next item to consider.
input: Bench note: what TGI did O=P(O)(O)OCC1OC(n2cnc3c(NCc4ccccc4)ncnc32)C(O)C1O (configuration not stated) show?
output: 27.9

----------
System: SK-MEL-28 melanoma
PROTOCOL_SUMMARY: NCI tumour cell line growth inhibition, 48 h
ASSAY_ENDPOINT: TGI

Recorded TGI, per entry:
* CN(C)CCCNc1nc2ccccc2c2[nH]c3ccccc3c12 | 5.84 µM
* O=C(c1ccc([N+](=O)[O-])cc1)N1CCCC1 | > 100 µM
* NC(Cc1ccccc1)c1nccs1 (stereo not given) | > 100 µM

input: Bench note: what TGI did C=C1[C@@H]2CCC3[C@]4(C)C(CC[C@@]5(C)C(=O)O[C@H](O)[C@@H]45)[C@H](O)[C@]3(C2)[C@H]1OC1OC(CO)C(O)C(O)C1O (stereo not given in full) show?
output: > 50 µM

input: Here is the next compound: COc1ccc(C2C=C(c3ccc(C)cc3)N(c3ccc(OC)cc3[N+](=O)[O-])C3C(=O)OC(=O)C23)c(OC)c1 (stereo not given)
output: > 100 µM

----------
Tested on: OVCAR-3 ovarian
PROTOCOL_SUMMARY: NCI tumour cell line growth inhibition, 48 h; in the data active = GI50 below about 0.43 µM; inactive = the rest
Entry note: the call must match one of true (1) for active, false (0) for inactive

Below are worked cases with known answers.
- N#Cc1cc(S(=O)(=O)Nc2nc3ccccc3o2)c(SCc2ccccc2)cc1Cl: false (0)
- CC(=O)[O-].N.N.N.N.[Co+3].[O-][Cl+3]([O-])([O-])[O-].[OH3+]: false (0)
- CN1CCN(CCCOc2cc(O)c3c(=O)cc(-c4ccccc4)oc3c2)CC1: false (0)
- CCn1c2ccccc2c2cc(C(=O)c3ccc(C)c4ccccc34)ccc21: true (1)
- C=C1CCC2C3(C)COC(c4ccccc4Cl)OC3CCC2(C)C1/C=C/C1=CCOC1=O (centres undefined): false (0)

input: Identify the outcome logged in this assay for the compound shown: COc1ccc(S(=O)(=O)N(C(C)=O)c2ccccc2/C=C/c2cc[n+]([O-])cc2)cc1
output: true (1)

input: Here is the next compound: COC(=O)N[C@H]1CCc2c(Cl)c(OC)c(OC)c(OC)c2-c2ccc(SC)c(=O)cc21
output: true (1)

input: Here is the next compound: CC(=O)[CH-]C(=O)c1ccccc1.CC(=O)[CH-]C(=O)c1ccccc1.[O-]c1ccc2c(c1)OCO2.[O-]c1ccc2c(c1)OCO2.[Ti+4]
output: false (0)

input: Here is the next compound: CCC[CH2][Sn]1([CH2]CCC)[S]CC[N]1S(=O)(=O)c1ccc(C)cc1
output: false (0)

----------
System: UACC-62 melanoma
PROTOCOL_SUMMARY: NCI tumour cell line growth inhibition, 48 h
Examples of compounds with documented TGI follow.

Recorded TGI, per entry:
• Clc1ccc(/C(=C/c2ccccc2)Cn2ccnc2)cc1 = > 100 µM
• O=C(/C=C/C12c3ccccc3C(c3ccccc31)C1C(=O)NC(=O)C12)c1ccccc1 (configuration not stated) = 3.82 µM

input: Bench note: what TGI did COc1ccc(S(=O)(=O)N(C(C)=O)c2ccccc2/C=C/c2cc[n+]([O-])cc2)cc1 show?
output: > 10 µM

input: Here is the next compound: COc1cc2c(c(OC)c1)[C@H](C)N(Cc1ccccc1)C(C)C2 (some centres not stated)
output: > 100 µM

----------
Test system: RPMI-8226 leukemia
PROTOCOL_SUMMARY: NCI tumour cell line growth inhibition, 48 h
ASSAY_ENDPOINT: TGI

* COc1ccc2c(c1OC)C(=O)N1C2=Cc2c(cc3c(c2OC)OCO3)CC1N(C)C (stereo not given) | 99.6 µM
* CC(=O)Oc1ccc2c(c1)C(=O)c1nc(C)c(C)nc1C2=O | > 100 µM
* CC(=O)Oc1ccc2c(-c3ccccc3)c(Oc3ccc(Cl)cc3)c(=O)oc2c1 | > 100 µM

input: Bench note: what TGI did CN(N)c1nc(N)c(C#N)c(C#N)c1C#N show?
output: > 10 µM

input: Here is the next compound: CS(=O)(=O)Nc1ccc2ccccc2c1
output: > 100 µM

input: Here is the next compound: COc1ccc(C2C=C(c3ccc(C)cc3)N(c3ccc(OC)cc3[N+](=O)[O-])C3C(=O)OC(=O)C23)c(OC)c1 (stereo not given)
output: 56.5 µM
